measured_target: m1 muscarinic receptors (Homo sapiens)
Construct: expressed in transfected cells; host or cells: CHO (Chinese Hamster Ovary) cells, membranes
measurement_description: Effect on ACh binding: ACh inhibition of 3H-NMS binding (indirect assay) on CHO cell membranes
test_settings: tested at 3 μg/ml; 0.15 nM 3H-NMS, 30 μM ACh, 0.2 mM GTP, pH 7.4, 30° C., two hours
Description: The compounds of the present invention may be assayed for allosteric activity at m1 muscarinic receptors as described below, although the assays we describe are not necessarily exhaustive, and other assays may be employed, as desired, to establish allosterism. A suitable cell line is CHO (Chinese Hamster Ovary), which are readily engineered to express only one receptor sub-type. To obtain the large amount of cell membranes required, plates of 530 cm^2 culture area were used. […]
recorded_endpoint: Effect on ACh Binding
Format: numeric value only, no unit, no commentary.

Past entries and their recorded results:
- compound: "Cc1cc(CC(=O)O)c(SC(C)C)c2c1c1ccccc1n2Cc1ccccc1"
  measured_target: "m1 muscarinic receptors (Homo sapiens)"
  recorded_endpoint: "Effect on ACh Binding"
  data_value: 4.91
- compound: "CC(C)Sc1c(CC(=O)O)cc(C(C)C)c2c3ccccc3n(Cc3ccccc3)c12"
  measured_target: "m1 muscarinic receptors (Homo sapiens)"
  recorded_endpoint: "Effect on ACh Binding"
  data_value: 2.82
- compound: "O=C(O)CC1CCc2c(n(Cc3ccccc3)c3ccccc23)S1 (stereo not drawn)"
  measured_target: "m1 muscarinic receptors (Homo sapiens)"
  recorded_endpoint: "Effect on ACh Binding"
  data_value: 2.08
- compound: "CSc1c(CC(=O)O)cc(C)c2c3ccccc3n(Cc3ccc(Cl)cc3)c12"
  measured_target: "m1 muscarinic receptors (Homo sapiens)"
  recorded_endpoint: "Effect on ACh Binding"
  data_value: 5.02
- compound: "CCCc1cc(C(Cc2cccc([N+](=O)[O-])c2)C(=O)O)c(SC)c2c1c1ccccc1n2Cc1cccc([N+](=O)[O-])c1 (stereo not drawn)"
  measured_target: "m1 muscarinic receptors (Homo sapiens)"
  recorded_endpoint: "Effect on ACh Binding"
  data_value: 2.59
- compound: "CSc1c(CC(=O)O)cc(C)c2c3ccccc3n(CCc3cccc(Cl)c3)c12"
  measured_target: "m1 muscarinic receptors (Homo sapiens)"
  recorded_endpoint: "Effect on ACh Binding"
  data_value: 5.79

Looking for the measured Effect on ACh Binding of CSc1c(CC(=O)O)cc(C)c2c3ccccc3n(Cc3ccc(Cl)c(Cl)c3)c12 , can you help? 6.49

What do we get for CSc1c(C(Cc2ccccc2)C(=O)O)cc(C)c2c1[nH]c1ccccc12 (stereo not drawn) ? 2.42

What do we get for CSc1c(Cc2nnn[nH]2)cc(C)c2c3ccccc3n(Cc3ccc(Cl)c(Cl)c3)c12 ? 2.02

What do we get for CCCc1cc(CC(=O)O)c(SC)c2c1c1ccccc1n2Cc1ccc([N+](=O)[O-])cc1 ? 2.08

What do we get for Cc1cc(CC(=O)O)c([S+](C)[O-])c2c1c1ccccc1n2Cc1ccccc1 (stereo not drawn) ? 3.59

---

measured_target: m1 muscarinic receptors (Homo sapiens, UniProt P11229)
Construct: expressed in transfected cells; host or cells: CHO (Chinese Hamster Ovary) cells, membranes
measurement_description: Effect on ACh binding: ACh inhibition of 3H-NMS binding (indirect assay) on CHO cell membranes
test_settings: tested at 3 μg/ml; 0.15 nM 3H-NMS, 30 μM ACh, 0.2 mM GTP, pH 7.4, 30° C., two hours
Outcome label depends on Effect on ACh Binding relative to 3: at/above gives class 1, below gives class 0.

- compound: "CSc1c(CC(=O)O)cc(C(F)(F)F)c2c3ccccc3n(Cc3ccccc3)c12 [Example 231]"
  assigned_label: "class 1"
- compound: "CSc1c(CC(=O)O)cc(C)c2c3ccccc3n(CCCc3ccccc3)c12 [Example 214]"
  assigned_label: "class 1"
- compound: "Cc1cc(CC(=O)O)c(OCc2ccccc2)c2c1c1ccccc1n2Cc1ccccc1 [Example 134]"
  assigned_label: "class 1"
- compound: "CSc1c(CC(=O)O)ccc2c3ccccc3n(Cc3ccccc3)c12 [Example 5]"
  assigned_label: "class 0"
- compound: "CSc1c(CC(=O)O)cc(C)c2c3ccccc3n(Cc3cccc(Cl)c3)c12 [Example 145]"
  assigned_label: "class 1"

Check if Effect on ACh Binding >= 3 (inclusive). Item: Cc1c(CCC(=O)O)ccc2c3ccccc3n(Cc3ccccc3)c12 [Example 37] class 0

---

measured_target: m1 muscarinic receptors (Homo sapiens)
Construct: expressed in transfected cells; host or cells: CHO (Chinese Hamster Ovary) cells, membranes
Sequence (P11229 1-460): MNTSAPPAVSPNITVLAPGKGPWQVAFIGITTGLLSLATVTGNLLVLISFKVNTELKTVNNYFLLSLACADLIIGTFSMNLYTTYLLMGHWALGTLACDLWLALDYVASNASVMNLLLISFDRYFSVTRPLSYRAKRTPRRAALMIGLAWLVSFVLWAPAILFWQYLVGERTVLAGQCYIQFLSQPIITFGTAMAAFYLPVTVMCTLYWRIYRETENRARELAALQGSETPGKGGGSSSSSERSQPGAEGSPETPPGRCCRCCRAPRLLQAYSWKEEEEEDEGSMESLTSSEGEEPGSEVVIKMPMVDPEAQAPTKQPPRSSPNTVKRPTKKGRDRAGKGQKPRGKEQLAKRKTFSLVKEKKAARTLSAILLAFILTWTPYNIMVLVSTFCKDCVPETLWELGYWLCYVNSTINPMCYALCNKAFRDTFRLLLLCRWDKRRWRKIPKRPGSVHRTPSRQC
measurement_description: Effect on ACh binding: ACh inhibition of 3H-NMS binding (indirect assay) on CHO cell membranes
test_settings: tested at 3 μg/ml; 0.15 nM 3H-NMS, 30 μM ACh, 0.2 mM GTP, pH 7.4, 30° C., two hours
Outcome label depends on Effect on ACh Binding relative to 3: at/above gives MET, below gives NOT MET.

Record excerpt, results attached:
- compound: "CSc1c(C(Cc2ccc([N+](=O)[O-])cc2)C(=O)O)ccc2c3ccccc3n(Cc3ccc([N+](=O)[O-])cc3)c12 (stereo not shown)"
  measured_target: "m1 muscarinic receptors (Homo sapiens)"
  assigned_label: "NOT MET"
- compound: "CSc1c(CC(=O)O)cc(C)c2c3ccccc3n(Cc3ccc(F)cc3)c12"
  measured_target: "m1 muscarinic receptors (Homo sapiens)"
  assigned_label: "MET"
- compound: "c1ccc(Cn2c3c(c4ccccc42)CCC(Cc2nnn[nH]2)S3)cc1 (stereo not shown)"
  measured_target: "m1 muscarinic receptors (Homo sapiens)"
  assigned_label: "MET"
- compound: "CSc1c(CC(=O)OC(C)(C)C)ccc2c3ccccc3n(Cc3ccc(F)cc3)c12"
  measured_target: "m1 muscarinic receptors (Homo sapiens)"
  assigned_label: "MET"
- compound: "CSc1c(CC(=O)O)cc(C)c2c3ccccc3n(Cc3cccc(F)c3)c12"
  measured_target: "m1 muscarinic receptors (Homo sapiens)"
  assigned_label: "MET"

Check if Effect on ACh Binding >= 3 (inclusive). Item: CCCOc1c(CC(=O)O)cc(C)c2c3ccccc3n(Cc3ccccc3)c12 NOT MET

What do we get for CSc1c(C(Cc2ccccc2)C(=O)O)ccc2c3ccccc3n(Cc3ccccc3)c12 (stereo not shown) ? NOT MET
